assay: Multiple-dose; type: in vivo, human (healthy subjects); details: human, plasma, oral, 15 mg, t1/2, steady state, 15 mg once-daily ER, nonfasting, n = 12, mean ± SD
quantity kind: half-life at 7 days (h)
Report the figure in h without appending any unit label.

Look at this compound and give its reported half-life at 7 days. `CC[C@@H]1CN(C(=O)NCC(F)(F)F)C[C@@H]1c1cnc2cnc3[nH]ccc3n12`
15.1

---

assay type: in vivo, human (healthy subjects); conditions: human, plasma, oral, 30 mg, Cmax, single 30 mg ER after high-fat breakfast, n = 12, mean ± SD
quantity kind: Cmax (ng/mL)
Use ng/mL as the unit, but write only the number.

// query Cmax value for entry `CC[C@@H]1CN(C(=O)NCC(F)(F)F)C[C@@H]1c1cnc2cnc3[nH]ccc3n12`
76.8
